Assay: PK of compound of Formula (Ia) after single subcutaneous dose of solution formulations in Wistar Han rats
Type: in vivo
Details: male, Wistar Han, rat, plasma, sc, 50 mg/kg, Wistar Han rats, SC 50 mg/kg, 400 mg/mL solution Z (3.13% poloxamer 188), 1008 h, animals #1-#4
Observed property: concentration at 1008 h (nM)

Compound	Unit string	Test value
CC(C)(C#Cc1ccc(-c2ccc(Cl)c3c(NS(C)(=O)=O)nn(CC(F)(F)F)c23)c([C@H](Cc2cc(F)cc(F)c2)NC(=O)Cn2nc(C(F)(F)F)c3c2C(F)(F)[C@@H]2C[C@H]32)n1)S(C)(=O)=O [compound of Formula (Ia)]	nM	137

---

Test: PK of compound of Formula (Ia) after single subcutaneous dose of solution formulations in Wistar Han rats
Format: in vivo
Details: male, Wistar Han, rat, plasma, sc, 50 mg/kg, 3360 h; individual rats; SC 50 mg/kg; solution R, 400 mg/mL
Observed property: concentration at 3360 h (µM)

Molecule	Observed property	Test value
CC(C)(C#Cc1ccc(-c2ccc(Cl)c3c(NS(C)(=O)=O)nn(CC(F)(F)F)c23)c([C@H](Cc2cc(F)cc(F)c2)NC(=O)Cn2nc(C(F)(F)F)c3c2C(F)(F)[C@@H]2C[C@H]32)n1)S(C)(=O)=O	concentration at 3360 h	0.132

---

Assay: PK of compound of Formula (Ia) after single subcutaneous dose of solution formulations in beagle dogs
Type: in vivo
Conditions: male, beagle, dog, plasma, sc, 12 mg/kg, 672 h; mean, n = 3 dogs; SC 12 mg/kg; solution T, 400 mg/mL

Molecule	concentration at 672 h
CC(C)(C#Cc1ccc(-c2ccc(Cl)c3c(NS(C)(=O)=O)nn(CC(F)(F)F)c23)c([C@H](Cc2cc(F)cc(F)c2)NC(=O)Cn2nc(C(F)(F)F)c3c2C(F)(F)[C@@H]2C[C@H]32)n1)S(C)(=O)=O	116 nM

---

Experiment: PK of compound of Formula (Ia) after single subcutaneous dose of solution formulations in beagle dogs
Format: in vivo
Settings: male, beagle, dog, plasma, sc, 12 mg/kg, 504 h; mean, n = 3 dogs; SC 12 mg/kg; solution U, 500 mg/mL

Molecule	concentration at 504 h (nM)
CC(C)(C#Cc1ccc(-c2ccc(Cl)c3c(NS(C)(=O)=O)nn(CC(F)(F)F)c23)c([C@H](Cc2cc(F)cc(F)c2)NC(=O)Cn2nc(C(F)(F)F)c3c2C(F)(F)[C@@H]2C[C@H]32)n1)S(C)(=O)=O	149

---

Assay: PK of compound of Formula (Ia) after single subcutaneous dose of solution formulations in Wistar Han rats
Format: in vivo
Settings: male, Wistar Han, rat, plasma, sc, 50 mg/kg, 1.00 h; mean, n = 3 rats; SC 50 mg/kg; solution V, 300 mg/mL

Molecule	concentration at 1 h / nM
CC(C)(C#Cc1ccc(-c2ccc(Cl)c3c(NS(C)(=O)=O)nn(CC(F)(F)F)c23)c([C@H](Cc2cc(F)cc(F)c2)NC(=O)Cn2nc(C(F)(F)F)c3c2C(F)(F)[C@@H]2C[C@H]32)n1)S(C)(=O)=O	51.4

---

Test: PK of compound of Formula (Ia) after single subcutaneous dose of solution formulations in Wistar Han rats
Type: in vivo
Conditions: male, Wistar Han, rat, plasma, sc, 50 mg/kg, Wistar Han rats, SC 50 mg/kg, 500 mg/mL solution X (5.00% ethanol, 1.91% poloxamer 188), 504 h, animals #1-#3

Compound	Unit string	concentration at 504 h
CC(C)(C#Cc1ccc(-c2ccc(Cl)c3c(NS(C)(=O)=O)nn(CC(F)(F)F)c23)c([C@H](Cc2cc(F)cc(F)c2)NC(=O)Cn2nc(C(F)(F)F)c3c2C(F)(F)[C@@H]2C[C@H]32)n1)S(C)(=O)=O [compound of Formula (Ia)]	nM	311
